# System Tested: PI3Kα H1047R (T47D cells) (Homo sapiens, UniProt P42336, H1047R)
# Construct: endogenous in cells; host or cells: T47D cells
# Sequence (P42336 whole entry H1047R): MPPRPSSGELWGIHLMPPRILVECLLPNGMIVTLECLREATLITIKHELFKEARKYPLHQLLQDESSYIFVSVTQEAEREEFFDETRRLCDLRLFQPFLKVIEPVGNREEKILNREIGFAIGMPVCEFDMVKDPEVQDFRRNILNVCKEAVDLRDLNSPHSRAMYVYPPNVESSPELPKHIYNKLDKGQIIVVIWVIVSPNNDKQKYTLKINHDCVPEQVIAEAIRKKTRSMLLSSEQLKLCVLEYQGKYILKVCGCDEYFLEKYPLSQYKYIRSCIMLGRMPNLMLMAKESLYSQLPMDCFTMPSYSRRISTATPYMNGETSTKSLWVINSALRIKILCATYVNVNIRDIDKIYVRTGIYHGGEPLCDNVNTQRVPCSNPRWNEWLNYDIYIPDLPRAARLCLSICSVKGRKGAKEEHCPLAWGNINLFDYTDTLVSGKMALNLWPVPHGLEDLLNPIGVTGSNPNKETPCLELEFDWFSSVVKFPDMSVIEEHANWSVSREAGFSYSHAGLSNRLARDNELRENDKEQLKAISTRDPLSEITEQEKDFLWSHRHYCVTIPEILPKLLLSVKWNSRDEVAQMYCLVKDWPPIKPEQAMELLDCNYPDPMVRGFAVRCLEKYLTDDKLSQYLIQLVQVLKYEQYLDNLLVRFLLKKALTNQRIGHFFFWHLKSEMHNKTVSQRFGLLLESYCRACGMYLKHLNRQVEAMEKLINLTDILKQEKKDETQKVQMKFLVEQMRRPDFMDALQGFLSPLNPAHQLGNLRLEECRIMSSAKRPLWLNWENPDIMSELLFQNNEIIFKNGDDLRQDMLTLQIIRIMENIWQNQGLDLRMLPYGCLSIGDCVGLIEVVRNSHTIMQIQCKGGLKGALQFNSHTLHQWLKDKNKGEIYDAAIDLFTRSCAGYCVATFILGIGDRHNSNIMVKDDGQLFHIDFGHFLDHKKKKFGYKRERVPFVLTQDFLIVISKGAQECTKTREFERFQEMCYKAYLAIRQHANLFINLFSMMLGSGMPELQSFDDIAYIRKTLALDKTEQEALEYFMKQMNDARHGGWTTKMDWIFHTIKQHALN
# Sequence (P27986 whole entry partner): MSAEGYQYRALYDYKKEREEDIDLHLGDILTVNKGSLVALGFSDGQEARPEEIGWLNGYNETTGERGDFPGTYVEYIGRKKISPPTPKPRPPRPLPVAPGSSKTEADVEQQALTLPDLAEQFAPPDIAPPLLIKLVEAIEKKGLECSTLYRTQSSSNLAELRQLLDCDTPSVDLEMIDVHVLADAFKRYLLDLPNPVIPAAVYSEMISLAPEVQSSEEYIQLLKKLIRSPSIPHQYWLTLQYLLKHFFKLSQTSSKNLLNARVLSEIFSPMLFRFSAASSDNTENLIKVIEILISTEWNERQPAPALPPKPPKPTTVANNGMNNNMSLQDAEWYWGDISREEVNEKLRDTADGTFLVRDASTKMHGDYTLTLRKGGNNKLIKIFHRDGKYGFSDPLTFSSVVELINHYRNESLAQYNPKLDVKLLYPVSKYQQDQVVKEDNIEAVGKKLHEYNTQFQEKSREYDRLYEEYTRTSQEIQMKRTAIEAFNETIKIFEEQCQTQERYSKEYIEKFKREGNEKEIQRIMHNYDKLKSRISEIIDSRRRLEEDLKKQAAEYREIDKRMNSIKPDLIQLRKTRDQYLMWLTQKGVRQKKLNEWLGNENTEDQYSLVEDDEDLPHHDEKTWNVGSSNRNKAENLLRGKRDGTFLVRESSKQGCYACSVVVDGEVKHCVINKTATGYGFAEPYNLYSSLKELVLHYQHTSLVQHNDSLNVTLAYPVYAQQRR
# Protocol Summary: PI3Kα cellular assay: pAKT HTRF in T47D cells after EGF stimulation
# Format: cell-based
# Study Conditions: T47D cells (PI3Kα H1047R), pAKT S473 HTRF, EGF stimulation
Listing of recorded IC50 by entry.

Cc1cc([C@H](C)Nc2ccccc2C(=O)O)c2nc(-c3ccc4c(c3)c(N(C)C)nn4C)c(C)c(=O)n2c1 [Compound 920] ... > 2000 nM
Cc1cc([C@H](C)Nc2ccccc2S(N)(=O)=O)c2nc(-c3cccc(C(F)F)c3)c(C)c(=O)n2c1 [Compound 1098] ... > 2000 nM
Cc1cc([C@@H](C)Nc2ccccc2C(=O)O)c2nc(-c3cccc(F)c3)c(C(C)C)c(=O)n2c1 [Compound 1277] ... 100 to 500 nM

Request - read-out IC50 | tested on PI3Kα H1047R (T47D cells) (Homo sapiens, UniProt P42336, H1047R) | molecule Cc1cc([C@H](C)Nc2ccccc2C(=O)O)c2nc(-c3ccc4c(c3)c(C#N)nn4C3CC3)c(C)c(=O)n2c1 [Compound 1049] > 2000 nM

Identify the measured IC50 of Cc1cc(C(C)Nc2ccccc2C(=O)O)c2nc(-c3ccc4c(c3)c(C(F)F)nn4C)cc(=O)n2c1 (stereo not shown) [Compound 769] for PI3Kα H1047R (T47D cells) (Homo sapiens, UniProt P42336, H1047R). 100 to 500 nM

Form entry - test system: PI3Kα H1047R (T47D cells) (Homo sapiens, UniProt P42336, H1047R); read-out: IC50; molecule: Cc1cc([C@H](C)Nc2ccccc2S(N)(=O)=O)c2nc(N3C[C@@H](C)O[C@@H](C)C3)cc(=O)n2c1 [Compound 731] > 2000 nM

Lookup: IC50 / PI3Kα H1047R (T47D cells) (Homo sapiens, UniProt P42336, H1047R) / Cc1cc([C@@H](C)Nc2ccccc2C(=O)O)c2nc(-c3ccc(F)c(C#N)c3)c(C)c(=O)n2c1 (single isomer, unassigned) [Compound 947] < 100 nM
